# MEASURED ON: Acetylcholinesterase (Homo sapiens, UniProt P22303)
# Sequence (P22303 whole entry): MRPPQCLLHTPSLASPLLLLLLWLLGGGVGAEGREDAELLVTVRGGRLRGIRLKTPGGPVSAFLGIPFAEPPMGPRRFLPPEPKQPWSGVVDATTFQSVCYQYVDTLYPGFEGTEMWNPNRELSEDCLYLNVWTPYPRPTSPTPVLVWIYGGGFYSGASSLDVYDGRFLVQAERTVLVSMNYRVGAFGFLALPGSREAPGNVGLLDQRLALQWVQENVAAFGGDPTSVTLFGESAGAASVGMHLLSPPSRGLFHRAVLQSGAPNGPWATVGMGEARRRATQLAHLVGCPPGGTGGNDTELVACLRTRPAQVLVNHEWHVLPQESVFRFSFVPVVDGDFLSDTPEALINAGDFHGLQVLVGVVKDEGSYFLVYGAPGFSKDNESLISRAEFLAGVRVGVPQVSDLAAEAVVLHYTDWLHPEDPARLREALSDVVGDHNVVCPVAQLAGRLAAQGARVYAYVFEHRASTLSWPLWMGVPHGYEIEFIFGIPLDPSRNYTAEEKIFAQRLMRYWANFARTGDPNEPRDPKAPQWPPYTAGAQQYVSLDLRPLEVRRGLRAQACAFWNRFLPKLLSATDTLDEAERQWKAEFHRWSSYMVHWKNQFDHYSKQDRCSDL
# ASSAY METHOD TEXT: DRUGMATRIX: Acetylcholinesterase enzyme inhibition (substrate: acetylthiocholine)
# Type: cell-based, HEK293
# CONDITION CONTEXT: hek293; Not Active = under 50% inhibition at 10 µM

SUBSTANCE: CARBOXYMETHYLCELLULOSE
IC50: Not Active
--
SUBSTANCE: CHROMIC CHLORIDE
IC50: Not Active
--
SUBSTANCE: LEAD(IV) ACETATE
IC50: Not Active
--
SUBSTANCE: COPPER(II) OXIDE
IC50: Not Active
--
SUBSTANCE: POVIDONE
IC50: Not Active

FYI, the data here is from ChEMBL document CHEMBL1909046.
